Recorded values, source patent US20080267971A1.

Assay system: T1, Mouse/Human chimeric Ang-2 with the human StuI-TfiI fragment (mouse/human chimera, UniProt O35608 19-496)
T1 construct: also called Stu-Tfil 310-400
T1 chain: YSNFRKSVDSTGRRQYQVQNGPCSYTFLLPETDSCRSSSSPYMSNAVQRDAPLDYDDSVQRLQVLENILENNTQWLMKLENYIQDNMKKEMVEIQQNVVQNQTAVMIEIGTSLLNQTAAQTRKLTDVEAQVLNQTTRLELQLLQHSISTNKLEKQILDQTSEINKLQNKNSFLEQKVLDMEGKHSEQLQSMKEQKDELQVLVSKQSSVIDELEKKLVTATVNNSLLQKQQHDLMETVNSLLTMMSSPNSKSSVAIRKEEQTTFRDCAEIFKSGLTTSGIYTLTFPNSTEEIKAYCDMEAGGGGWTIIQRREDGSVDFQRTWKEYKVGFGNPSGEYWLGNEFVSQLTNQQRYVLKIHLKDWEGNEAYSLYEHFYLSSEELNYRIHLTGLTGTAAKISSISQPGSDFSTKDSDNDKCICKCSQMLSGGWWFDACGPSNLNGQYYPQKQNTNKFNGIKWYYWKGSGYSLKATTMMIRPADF
Assay remarks: ELISA
Readout kind: % of binding to human Ang-2 (%)
Field: numeric (%). Do not append units.

query: Entry mAb 5.88.3 (antibody, V domains shown, Human hybridoma IgG (XenoMouse); also called x5.88) VH: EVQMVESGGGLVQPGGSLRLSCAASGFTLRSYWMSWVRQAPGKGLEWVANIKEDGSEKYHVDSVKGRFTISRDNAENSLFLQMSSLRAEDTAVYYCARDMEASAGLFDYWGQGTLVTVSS VL: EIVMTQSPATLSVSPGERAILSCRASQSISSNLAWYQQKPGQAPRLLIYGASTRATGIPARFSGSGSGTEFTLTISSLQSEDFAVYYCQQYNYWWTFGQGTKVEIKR has what % of binding to human Ang-2?
result: 20

query: Entry mAb 5.62.1 (antibody, V domains shown, Human hybridoma IgG (XenoMouse); also called x5.62) VH: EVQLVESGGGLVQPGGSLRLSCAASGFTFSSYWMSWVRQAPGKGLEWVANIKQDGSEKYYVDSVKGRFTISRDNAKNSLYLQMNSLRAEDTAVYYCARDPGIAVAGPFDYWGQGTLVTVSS VL: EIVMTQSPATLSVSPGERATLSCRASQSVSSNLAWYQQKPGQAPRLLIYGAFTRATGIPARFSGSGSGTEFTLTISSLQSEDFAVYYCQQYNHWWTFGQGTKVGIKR has what % of binding to human Ang-2?
result: 30

query: Entry mAb 5.13.1 (antibody, V domains shown, Human hybridoma IgG (XenoMouse); also called x5.13) VH: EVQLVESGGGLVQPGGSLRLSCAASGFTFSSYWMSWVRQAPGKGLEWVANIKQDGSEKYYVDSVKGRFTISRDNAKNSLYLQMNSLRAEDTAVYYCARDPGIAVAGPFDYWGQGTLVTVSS VL: EIVMTQSPATLSVSPGERATLSCRASQSVSSNLAWYQQKPGQAPRLLIYGASTRATGIPARFSGSGSGTEFTLTISSLQSEDFAVYYCQQYNHWWTFGQGTKVEIKR has what % of binding to human Ang-2?
result: 27
